- study.system: T1, human parathyroid hormone receptor 1, wild-type (hPTHR-1) (human, UniProt Q03431 27-593)
- T1 construct: whole, on cells; also called human PTHR-1; PTHR-1-WT
- T1 sequence (looked up): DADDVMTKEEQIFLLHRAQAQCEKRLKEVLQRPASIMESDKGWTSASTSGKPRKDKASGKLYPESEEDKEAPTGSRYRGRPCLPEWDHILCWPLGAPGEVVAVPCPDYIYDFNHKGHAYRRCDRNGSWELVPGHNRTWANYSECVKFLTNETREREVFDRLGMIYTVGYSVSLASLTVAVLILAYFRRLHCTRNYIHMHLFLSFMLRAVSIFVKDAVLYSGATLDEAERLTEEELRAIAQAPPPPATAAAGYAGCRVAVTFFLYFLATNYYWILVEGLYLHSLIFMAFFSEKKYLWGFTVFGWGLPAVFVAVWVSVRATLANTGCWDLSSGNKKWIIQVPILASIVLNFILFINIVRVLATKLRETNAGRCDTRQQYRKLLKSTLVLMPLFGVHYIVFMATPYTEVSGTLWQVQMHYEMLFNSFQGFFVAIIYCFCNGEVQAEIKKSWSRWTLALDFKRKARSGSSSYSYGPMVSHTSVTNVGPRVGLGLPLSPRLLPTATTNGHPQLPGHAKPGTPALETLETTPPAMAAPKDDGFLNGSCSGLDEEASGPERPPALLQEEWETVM
- procedure.text: R0 state; 125I-PTH(1-34) displacement; COS-7 membranes, hPTHR-1, GTPγS
pIC50: −log10 of the molar value. Non-standard residues stand in square brackets, D forms with d. No end group written: not given here. β3hW = N[C@H](CC(=O)O)Cc1c[nH]c2ccccc12; β3hE = N[C@@H](CCC(=O)O)CC(=O)O; β3hF = N[C@H](CC(=O)O)Cc1ccccc1; β3hK = NCCCC[C@H](N)CC(=O)O; β3hM = CSCC[C@H](N)CC(=O)O; β3hD = NC(CC(=O)O)CC(=O)O
pIC50 values by entry

- binder: "SVSEIQLMHNLGK[β3hW]LNS[β3hM]ERV[β3hE]WLR[β3hK]KLQ[β3hD]VHN[β3hF]-NH2 (also called α/β-peptide D6) [D6]"
  pIC50: 8.70
- binder: "SVSEIQLMHNLGKHLNSMERVEWLRKKLQDVQNF-NH2 (not fully specified (residue 32); printed as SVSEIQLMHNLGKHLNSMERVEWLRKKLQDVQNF-NH2; also: three β3 residues, positions not given here in text, also called α/β-peptide B3) [B3]"
  pIC50: 7.10
- binder: "SVSEIQLMHNLGKWLNSMERVEWLRKKLQDVHNF-NH2 (not fully specified (residue 14); printed as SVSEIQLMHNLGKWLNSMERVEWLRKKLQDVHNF-NH2; also: seven β3 residues, positions not given here in text, also called α/β-peptide D7) [D7]"
  pIC50: 8.46
- binder: "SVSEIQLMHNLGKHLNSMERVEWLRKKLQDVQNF-NH2 (not fully specified (residues 20, 24, 28, 32); printed as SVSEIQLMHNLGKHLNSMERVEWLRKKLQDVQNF-NH2; also: five β3 residues, positions not given here in text, also called α/β-peptide B5) [B5]"
  pIC50: 7.72
